test: qHTS assay to identify small molecule agonists of the peroxisome proliferator-activated receptor delta (PPARd) signaling pathway - cell viability counter screen (AID 743211); details: PPARd-bla HEK293H viability, CellTiter-Glo luminescence, 17 h; series mostly up to 62.6 µM; also: nearly all actives have a fitted effect of over 55% in size
Records with an inconclusive call do not appear. Calls of active or inactive are those of the source. Calls follow the shape of the dose curve; as a rule, active = well fitted cell-killing curve with a large enough effect in the repeat runs; inconclusive = weak or mixed curves; inactive = no such curve, though single readings can be large or run the other way.
Please answer using one outcome listed in true (1) (active), false (0) (inactive)

Look up the recorded call for O=C(O)C(Cc1cc(I)c(O)c(I)c1)c1ccccc1 (stereo not given) in this test.
false (0)

Look up the recorded call for CCOC(=O)[C@@H](C)Oc1ccc(Oc2nc3ccc(Cl)cc3o2)cc1 in this test.
false (0)

Look up the recorded call for N#C/C(=C1\SCC(c2ccccc2Cl)S1)n1ccnc1 (stereo not given) in this test.
false (0)

Look up the recorded call for OC(CCCN1CCCCC1)(c1ccccc1)c1ccccc1 in this test.
false (0)

Look up the recorded call for CNCCCC1c2ccccc2C=Cc2ccccc21 in this test.
true (1)

Look up the recorded call for NC(=O)N(O)[C@@H]1C=C[C@H](Oc2cccc(Oc3ccc(F)cc3)c2)C1 in this test.
false (0)

Look up the recorded call for CCC(Cc1ccccc1)(C(=O)c1ccc(N2CCOCC2)cc1)N(C)C (stereo not given) in this test.
false (0)

Look up the recorded call for C[N+]1(C)CCC(=C(c2ccccc2)c2ccccc2)CC1 in this test.
false (0)

Look up the recorded call for CC(CCc1ccc2c(c1)OCO2)NN (stereo not given) in this test.
false (0)

Look up the recorded call for CC(N)CN (stereo not given) in this test.
false (0)

Look up the recorded call for CCN(CC)CCNC(=O)c1ccc(NC(C)=O)cc1 in this test.
false (0)

Look up the recorded call for NC(=O)N(O)[C@@H]1COc2cc(OCc3ccccc3)ccc21 in this test.
false (0)

Look up the recorded call for CCCCN(CCCC)CCCOC(=O)c1ccc(N)cc1 in this test.
false (0)

Look up the recorded call for CC1=C(C=O)C(C)(C)CCC1 in this test.
false (0)

Look up the recorded call for CC#N in this test.
false (0)

====

biological target: Aryl hydrocarbon receptor (Homo sapiens); experiment: qHTS assay to identify small molecule that activate the aryl hydrocarbon receptor (AhR) signaling pathway (AID 743085); conditions: HepG2 AhR-luc (HG2L7.5c1), luciferase, 24 h; series mostly up to 70.3 µM;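 also: HG2L7.5c1 human HepG2 liver cells with stably integrated DRE-driven firefly reporter; nearly all actives have a fitted effect of over 15% in size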
Inconclusive results are not listed. The source made the active and inactive calls. Calls follow the shape of the dose curve; as a rule, active = well fitted activation curve with a large enough effect in the repeat runs; inconclusive = weak or mixed curves; inactive = no such curve, though single readings can be large or run the other way.
property_measured: Potency

The cases that follow already have their Potency on record.
1. CCCCCCCC/C=C\CCCCCCCC(=O)OC; inactive
2. OCCSc1ccccc1; inactive
3. CC(=O)Oc1ccc2c(c1)CC[C@@H]1[C@@H]2CC[C@]2(C)[C@@H](O)CC[C@@H]12; inactive
4. C=CC(=C)CCCC(C)(C)OC(C)=O; inactive

Record COC(=O)CC(=O)C(C)(C)C : what is its Potency with Aryl hydrocarbon receptor (Homo sapiens)?
inactive

Record C=CC(=O)NCOCC(C)C : what is its Potency with Aryl hydrocarbon receptor (Homo sapiens)?
inactive

Record C/C=C/C=C/CCCCCCCO : what is its Potency with Aryl hydrocarbon receptor (Homo sapiens)?
inactive

Record O=C(CS)OCCOC(=O)CS : what is its Potency with Aryl hydrocarbon receptor (Homo sapiens)?
inactive

====

target: Peroxisome proliferator-activated receptor gamma (Homo sapiens) (UniProt P37231); assay: qHTS assay to identify small molecule antagonists of the peroxisome proliferator-activated receptor gamma (PPARg) signaling pathway (AID 743191); details: HEK293H PPARg-UAS-bla, beta-lactamase ratio, antagonist, 17 h; series mostly up to 62.6 µM; also: nearly all actives have a fitted effect of over 30% in size; also: potency is read from the fitted curve at half-maximal effect
Sequence (P37231 whole entry, looked up): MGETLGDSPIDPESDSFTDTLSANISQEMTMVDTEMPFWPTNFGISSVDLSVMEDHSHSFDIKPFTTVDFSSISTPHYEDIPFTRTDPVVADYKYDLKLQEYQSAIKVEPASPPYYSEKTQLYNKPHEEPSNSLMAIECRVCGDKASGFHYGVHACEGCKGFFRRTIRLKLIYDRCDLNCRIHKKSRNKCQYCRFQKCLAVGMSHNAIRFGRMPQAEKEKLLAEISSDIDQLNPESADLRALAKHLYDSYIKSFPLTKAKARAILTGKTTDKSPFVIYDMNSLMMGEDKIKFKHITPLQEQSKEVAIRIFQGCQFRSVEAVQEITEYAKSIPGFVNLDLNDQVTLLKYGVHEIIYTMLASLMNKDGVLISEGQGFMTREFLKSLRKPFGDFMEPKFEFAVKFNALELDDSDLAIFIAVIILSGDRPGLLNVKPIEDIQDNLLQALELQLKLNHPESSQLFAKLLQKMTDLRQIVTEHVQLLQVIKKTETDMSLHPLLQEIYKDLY
Inconclusive results are not listed. Active and inactive are the calls of the source. The call rests on the fitted dose curve.
property_measured: Potency

The cases that follow already have their Potency on record.
1) Cc1cc(S(=O)(=O)O)ccc1N=Nc1c(O)ccc2ccccc12; inactive
2) O=[N+]([O-])c1cccc(S(=O)(=O)NCCNS(=O)(=O)c2cccc([N+](=O)[O-])c2)c1; inactive
3) ON(Cc1ccccc1)Cc1ccccc1; inactive
4) C=C(C)C(=O)OCCOC(=O)CC(C)=O; inactive
5) CCCCCC=CCC=CCCCCCCCC(=O)OCC; 29.8 µM (active)

Name the reported Potency value associated with the molecule Fc1c(F)c(F)c(Br)c(F)c1F
inactive
